target: D(2) dopamine receptor (Homo sapiens) (UniProt P14416); assay: HTS Assay for Positive Allosteric Modulators of the Human D2 Dopamine Receptor: Primary Screen for Potentiators; conditions: HEK293 T-REx D2, calcium flux, EC20 dopamine potentiation; at 10 µM; stronger effect = higher value; also: 0% is about no effect
Sequence (P14416 whole entry, looked up): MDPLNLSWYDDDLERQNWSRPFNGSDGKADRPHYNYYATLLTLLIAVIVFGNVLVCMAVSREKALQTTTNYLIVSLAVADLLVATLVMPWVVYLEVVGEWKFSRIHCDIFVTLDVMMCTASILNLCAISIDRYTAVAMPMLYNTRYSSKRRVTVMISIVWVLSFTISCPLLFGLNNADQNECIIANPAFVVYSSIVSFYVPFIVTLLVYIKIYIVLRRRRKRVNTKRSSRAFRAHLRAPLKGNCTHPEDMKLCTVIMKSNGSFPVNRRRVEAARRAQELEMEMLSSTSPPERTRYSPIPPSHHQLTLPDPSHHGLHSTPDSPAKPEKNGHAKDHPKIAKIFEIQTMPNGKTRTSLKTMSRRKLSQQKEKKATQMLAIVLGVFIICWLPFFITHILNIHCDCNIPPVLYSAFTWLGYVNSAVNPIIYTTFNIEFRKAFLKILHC
Screen size: about 340,000 compounds; about 1,200 (0.35%) were called active. Only a selection was taken, and actives are over-represented in it overall.
Please provide measured potentiation for the entries that follow.
Answers are plain numbers, in %.

| compound | potentiation (%) |
| --- | --- |
| COC(=O)C(c1ccccc1)N1CCCCCC1 (stereo not given) | 5.6 |
| Cc1cccc(Cn2cccc(C(=O)Nc3ccc4c(c3)OCCO4)c2=O)c1 | -8.38 |
| Cc1ccc(NC(=O)N(Cc2ccc3c(c2)OCO3)C2CCN(Cc3ccccc3)CC2)cc1F | 2.88 |
| O=C(NCC(c1cccnc1)N1CCN(c2ccccc2)CC1)Oc1ccccc1 (stereo not given) | 43.6 |

Now for a further compound.
Reported potentiation, compound COc1ccccc1N1CCN(C(CNC(=O)Oc2ccccc2)c2cccnc2)CC1 (stereo not given) : ____
-0.508
